The following molecules are shown together with reported pKi values.
Biological target: Signal transducer and activator of transcription 5A (Homo sapiens, UniProt P42229)
Value format note: pKi is -log10 of concentration (mol/L); just state the number.

Before answering, review these 4 worked examples.
| molecule | pKi |
| --- | --- |
| CN(C)C(=O)CCN(C(=O)[C@@H]1CCCN1C(=O)[C@@H](NC(=O)c1cc2cc(C(F)(F)P(=O)(O)O)ccc2s1)C1CC1)c1ccc(-c2nccs2)cc1 | 5.54 |
| CN(C)C(=O)CCN(C(=O)[C@@H]1CCCN1C(=O)[C@H](Cc1ccc(F)cc1)NC(=O)c1cc2cc(C(F)(F)P(=O)(O)O)ccc2s1)c1ccc(-c2nccs2)cc1 | 6.00 |
| CN(C)C(=O)CCN(C(=O)[C@@H]1CCCN1C(=O)[C@@H](NC(=O)c1cc2cc(C(F)(F)P(=O)(O)O)ccc2s1)c1ccccc1)c1ccc(-c2nccs2)cc1 | 5.49 |
| CN(C)C(=O)CCN(C(=O)[C@@H]1CCCN1C(=O)[C@H](Cc1ccc(C(F)(F)F)cc1)NC(=O)c1cc2cc(C(F)(F)P(=O)(O)O)ccc2s1)c1ccc(-c2nccs2)cc1 | 5.64 |

Recorded result, `CN(C)C(=O)CCN(C(=O)[C@@H]1CCCN1C(=O)[C@@H](NC(=O)c1cc2cc(C(F)(F)P(=O)(O)O)ccc2s1)C(C)(C)C)c1cccc(-c2nccs2)c1` , pKi: 5.31

GET /value?item= `CN(C)C(=O)CCN(C(=O)[C@@H]1CCCN1C(=O)[C@@H](NC(=O)c1cc2cc(C(F)(F)P(=O)(O)O)ccc2s1)C(C)(C)C)c1ccc2ccccc2c1` &field=pKi returns 5.92

Documented pKi of CC(C)(C)[C@H](NC(=O)c1cc2cc(C(F)(F)P(=O)(O)O)ccc2s1)C(=O)N1CCC[C@H]1C(=O)N(CCC(=O)NCCCC#Cc1cccc2c1CN(C1CCC(=O)NC1=O)C2=O)c1ccc2sccc2c1 (some centres not stated) : 5.92

* * *

System: RS4-11
Test: Antiproliferative activity against human RS4-11 cells assessed as cell growth inhibition measured for 4 days by celltiter-glo assay
Settings: RS4-11, 96 h
recorded metric: IC50

The observed IC50 for CN(CCCC#Cc1cccc2c1CN(C1CCC(=O)NC1=O)C2=O)C(=O)CCN(C(=O)[C@@H]1CCCN1C(=O)[C@@H](NC(=O)c1cc2cc(C(F)(F)P(=O)(O)O)ccc2s1)C(C)(C)C)c1ccc(-c2nccs2)cc1 (stereo partly specified) when tested with RS4-11 stands at > 15 µM

* * *

// Ki lookup, one value per entry
Molecular target: Signal transducer and activator of transcription 6 (Homo sapiens)
Sequence (P42226 whole entry): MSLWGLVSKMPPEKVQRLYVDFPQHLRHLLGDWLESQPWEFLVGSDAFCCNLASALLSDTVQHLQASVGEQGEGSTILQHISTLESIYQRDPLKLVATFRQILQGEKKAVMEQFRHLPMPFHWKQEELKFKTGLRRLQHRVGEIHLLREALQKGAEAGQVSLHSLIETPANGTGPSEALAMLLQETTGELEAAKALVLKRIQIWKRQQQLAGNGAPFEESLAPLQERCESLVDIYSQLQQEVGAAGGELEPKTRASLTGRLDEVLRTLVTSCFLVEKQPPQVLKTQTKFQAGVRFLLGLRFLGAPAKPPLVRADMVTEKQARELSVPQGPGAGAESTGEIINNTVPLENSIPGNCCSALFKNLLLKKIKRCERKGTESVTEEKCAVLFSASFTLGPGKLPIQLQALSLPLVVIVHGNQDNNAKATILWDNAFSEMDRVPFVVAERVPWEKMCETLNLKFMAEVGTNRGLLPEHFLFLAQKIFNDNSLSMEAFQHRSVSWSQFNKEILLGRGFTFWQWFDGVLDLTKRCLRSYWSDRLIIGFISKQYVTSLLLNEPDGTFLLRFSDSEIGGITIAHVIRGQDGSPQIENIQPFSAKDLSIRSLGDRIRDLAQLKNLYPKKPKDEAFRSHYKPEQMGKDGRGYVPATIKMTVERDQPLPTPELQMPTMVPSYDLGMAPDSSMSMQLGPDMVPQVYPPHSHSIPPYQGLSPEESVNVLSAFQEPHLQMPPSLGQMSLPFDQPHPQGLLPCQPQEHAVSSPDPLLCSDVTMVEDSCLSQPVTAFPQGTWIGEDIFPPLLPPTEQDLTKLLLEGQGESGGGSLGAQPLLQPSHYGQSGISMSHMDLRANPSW
Answer in µM, number only, no unit symbol.

| compound smiles | measured number |
| --- | --- |
| CN(C)C(=O)CCN(C(=O)[C@@H]1CCCN1C(=O)[C@H](Cc1ccc(C(F)(F)F)cc1)NC(=O)c1cc2cc(C(F)(F)P(=O)(O)O)ccc2s1)c1ccc(-c2nccs2)cc1 | 4 |

Tested system Signal transducer and activator of transcription 6 (Homo sapiens); Ki recorded for `CN(C)C(=O)CCN(C(=O)[C@@H]1CCCN1C(=O)[C@@H](NC(=O)c1cc2cc(C(F)(F)P(=O)(O)O)ccc2s1)C(C)(C)C)c1ccc2ccccc2c1` was 0.2

# value of Ki, Signal transducer and activator of transcription 6 (Homo sapiens), item `CN(C)C(=O)CCN(C(=O)[C@@H]1CCCN1C(=O)[C@@H](NC(=O)c1cc2cc(C(F)(F)P(=O)(O)O)ccc2s1)C1CC1)c1ccc(-c2nccs2)cc1` = 1.3

* * *

Molecular target: UniProtKB P42229
Experiment: Induction of STAT5 degradation in human SKNO-1 cells measured for 18 hrs by Western blot analysis
Format: cell-based
# DC50 per record follows

Previously resolved entries follow.
| compound | DC50 |
| --- | --- |
| CC(C)(C)[C@H](NC(=O)c1cc2cc(C(F)(F)P(=O)(O)O)ccc2s1)C(=O)N1CCC[C@H]1C(=O)N(CCC(=O)NCCC#Cc1cccc2c1CN(C1CCC(=O)NC1=O)C2=O)c1ccc(Br)cc1 (stereo not given in full) | > 5000 nM |
| CC(C)(C)[C@H](NC(=O)c1cc2cc(C(F)(F)P(=O)(O)O)ccc2s1)C(=O)N1CCC[C@H]1C(=O)N(CCC(=O)NCCCC#Cc1cccc2c1CN(C1CCC(=O)NC1=O)C2=O)c1ccc2ccccc2c1 (stereo not given in full) | 210 nM |
| CC(C)(C)[C@H](NC(=O)c1cc2cc(C(F)(F)P(=O)(O)O)ccc2s1)C(=O)N1CCC[C@H]1C(=O)N(CCC(=O)NCCCC#Cc1cccc2c1CN(C1CCC(=O)NC1=O)C2=O)c1ccc(I)cc1 (stereo not given in full) | 530 nM |
| CC(C)(C)[C@H](NC(=O)c1cc2cc(C(F)(F)P(=O)(O)O)ccc2s1)C(=O)N1CCC[C@H]1C(=O)N(CCC(=O)N1CCC(Nc2cccc3c2CN(C2CCC(=O)NC2=O)C3=O)CC1)c1ccc(Br)cc1 (stereo not given in full) | > 5000 nM |
| CC(C)(C)[C@H](NC(=O)c1cc2cc(C(F)(F)P(=O)(O)O)ccc2s1)C(=O)N1CCC[C@H]1C(=O)N(CCC(=O)NCCCC#Cc1cccc2c1CN(C1CCC(=O)NC1=O)C2=O)c1ccc(Br)cc1 (stereo not given in full) | 230 nM |
| CC(C)(C)[C@H](NC(=O)c1cc2cc(C(F)(F)P(=O)(O)O)ccc2s1)C(=O)N1CCC[C@H]1C(=O)N(CCC(=O)N1CC(CCC#Cc2cccc3c2CN(C2CCC(=O)NC2=O)C3=O)C1)c1ccc(Br)cc1 (stereo not given in full) | 4200 nM |
| Cc1ccc(N(CCC(=O)NCCCC#Cc2cccc3c2CN(C2CCC(=O)NC2=O)C3=O)C(=O)[C@@H]2CCCN2C(=O)[C@@H](NC(=O)c2cc3cc(C(F)(F)P(=O)(O)O)ccc3s2)C(C)(C)C)cc1 (stereo not given in full) | 310 nM |
| CC(C)(C)[C@H](NC(=O)c1cc2cc(C(F)(F)P(=O)(O)O)ccc2s1)C(=O)N1CCC[C@H]1C(=O)N(CCC(=O)NCCCC#Cc1cccc2c1CN(C1CCC(=O)NC1=O)C2=O)c1ccc(-c2cccs2)cc1 (stereo not given in full) | 210 nM |

CC(C)(C)[C@H](NC(=O)c1cc2cc(C(F)(F)P(=O)(O)O)ccc2s1)C(=O)N1CCC[C@H]1C(=O)N(CCC(=O)NCCCC#Cc1cccc2c1CN(C1CCC(=O)NC1=O)C2=O)c1cccc2sccc12 (stereo not given in full) on UniProtKB P42229 gives DC50 = > 5000 nM

Entry CC(C)(C)[C@H](NC(=O)c1cc2cc(C(F)(F)P(=O)(O)O)ccc2s1)C(=O)N1CCC[C@H]1C(=O)N(CCC(=O)NCCCC#Cc1cccc2c1CN(C1CCC(=O)NC1=O)C2=O)c1ccc2scnc2c1 (stereo not given in full) under UniProtKB P42229 had DC50 of 450 nM

* * *

Molecular target: Protein cereblon (Homo sapiens, UniProt Q96SW2)
Sequence (Q96SW2 whole entry): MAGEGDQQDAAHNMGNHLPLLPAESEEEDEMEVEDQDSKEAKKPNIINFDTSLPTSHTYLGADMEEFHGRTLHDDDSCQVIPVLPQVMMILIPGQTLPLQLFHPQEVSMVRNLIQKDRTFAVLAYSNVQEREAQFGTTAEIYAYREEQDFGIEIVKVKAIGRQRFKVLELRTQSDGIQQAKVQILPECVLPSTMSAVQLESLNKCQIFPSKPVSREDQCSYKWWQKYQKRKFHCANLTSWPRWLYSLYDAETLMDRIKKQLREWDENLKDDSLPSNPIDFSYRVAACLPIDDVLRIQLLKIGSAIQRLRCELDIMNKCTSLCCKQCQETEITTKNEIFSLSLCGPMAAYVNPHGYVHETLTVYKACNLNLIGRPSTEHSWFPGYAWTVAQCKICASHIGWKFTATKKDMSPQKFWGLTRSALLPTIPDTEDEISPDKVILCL
Assay: Binding affinity to GST-tagged wild type human CRBN assessed as inhibition constant by TR-FRET assay
pKi: −log10 of the molar value.
recorded metric: pKi

Form field pKi, entry CN(CCCC#Cc1cccc2c1CN(C1CCC(=O)N(C)C1=O)C2=O)C(=O)CCN(C(=O)[C@@H]1CCCN1C(=O)[C@@H](NC(=O)c1cc2cc(C(F)(F)P(=O)(O)O)ccc2s1)C(C)(C)C)c1ccc(-c2nccs2)cc1 (stereo partly specified) : < 5.30

* * *

Molecular target: Signal transducer and activator of transcription 5A (Homo sapiens)
Sequence (P42229 whole entry): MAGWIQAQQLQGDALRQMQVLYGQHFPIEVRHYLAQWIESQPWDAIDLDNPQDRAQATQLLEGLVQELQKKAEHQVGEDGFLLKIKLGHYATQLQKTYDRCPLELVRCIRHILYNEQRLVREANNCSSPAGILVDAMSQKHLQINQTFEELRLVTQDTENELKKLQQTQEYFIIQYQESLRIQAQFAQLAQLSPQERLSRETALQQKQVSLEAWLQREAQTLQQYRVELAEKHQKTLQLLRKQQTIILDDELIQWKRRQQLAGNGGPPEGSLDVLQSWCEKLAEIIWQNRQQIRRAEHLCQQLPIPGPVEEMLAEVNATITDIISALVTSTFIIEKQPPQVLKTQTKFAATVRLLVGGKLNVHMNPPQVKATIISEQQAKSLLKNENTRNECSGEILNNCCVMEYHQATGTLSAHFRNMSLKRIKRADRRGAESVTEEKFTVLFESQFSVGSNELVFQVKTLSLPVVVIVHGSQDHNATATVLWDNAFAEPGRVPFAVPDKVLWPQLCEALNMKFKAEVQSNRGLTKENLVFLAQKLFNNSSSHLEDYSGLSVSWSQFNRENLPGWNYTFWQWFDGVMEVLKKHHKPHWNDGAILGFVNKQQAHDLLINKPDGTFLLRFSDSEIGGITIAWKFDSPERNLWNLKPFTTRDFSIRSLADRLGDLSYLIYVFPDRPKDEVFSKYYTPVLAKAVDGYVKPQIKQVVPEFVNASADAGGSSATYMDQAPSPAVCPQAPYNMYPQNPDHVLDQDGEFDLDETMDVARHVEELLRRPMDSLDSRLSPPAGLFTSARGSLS
Assay: Induction of STAT5 degradation in human SKNO-1 cells measured for 18 hrs by Western blot analysis
Assay type: cell-based
// DC50 lookup, one value per entry
Provide the reading as a plain figure in µM.

| compound | quantity unit | DC50 |
| --- | --- | --- |
| CC(C)(C)[C@H](NC(=O)c1cc2cc(C(F)(F)P(=O)(O)O)ccc2s1)C(=O)N1CCC[C@H]1C(=O)N(CCC(=O)NCCCC#Cc1cccc2c1CN(C1CCC(=O)NC1=O)C2=O)c1ccc(C(F)(F)F)cc1 (some centres not stated) | µM | 2 |
| CC(C)(C)[C@H](NC(=O)c1cc2cc(C(F)(F)P(=O)(O)O)ccc2s1)C(=O)N1CCC[C@H]1C(=O)N(CCC(=O)NCCCC#Cc1cccc2c1CN(C1CCC(=O)NC1=O)C2=O)c1ccc(-c2nccs2)cc1 (some centres not stated) | µM | 0.13 |
| CC(C)(C)[C@H](NC(=O)c1cc2cc(C(F)(F)P(=O)(O)O)ccc2s1)C(=O)N1CCC[C@H]1C(=O)N(CCC(=O)NCCCCCC#Cc1cccc2c1CN(C1CCC(=O)NC1=O)C2=O)c1ccc(Br)cc1 (some centres not stated) | µM | 1.1 |
| CN(CCCC#Cc1cccc2c1CN(C1CCC(=O)NC1=O)C2=O)C(=O)CCN(C(=O)[C@@H]1CCCN1C(=O)[C@@H](NC(=O)c1cc2cc(C(F)(F)P(=O)(O)O)ccc2s1)C(C)(C)C)c1ccc2occc2c1 (some centres not stated) | µM | 0.2 |

Entry CN(CCCC#Cc1cccc2c1CN(C1CCC(=O)NC1=O)C2=O)C(=O)CCN(C(=O)[C@@H]1CCCN1C(=O)[C@@H](NC(=O)c1cc2cc(C(F)(F)P(=O)(O)O)ccc2s1)C(C)(C)C)c1ccc(Br)cc1 (some centres not stated) ; DC50 = 0.19

Reference source for all entries: ChEMBL document CHEMBL5380794
